assay: Deliquescence relative humidity (DRH) of a saturated solution in a sealed vessel at 32° C.; assay type: physicochemical; conditions: saturated solution in water (1 mL), 24 hours, mass used printed beside the name
Value kind: DRH (%)
Response body: numeric value in %, unit text excluded.

Input O=C(O)[C@H](CO)NO [N-hydroxyserine] . Output DRH: 68.3

Input O=C(O)CNO [N-hydroxyglycine, N-Hydroxyglycine] . Output DRH: 68.1

Input NC(N)=O . Output DRH: 75.03

Input N[C@@H](CC(=O)O)C(=O)O . Output DRH: 100.0

Input NC(=O)C[C@H](N)C(=O)O . Output DRH: 91.2

Input C[C@@H](O)[C@H](N)C(=O)O . Output DRH: 86.0

Input NCC(=O)O [Glycine, reference compound] . Output DRH: 79.13

Input N[C@@H](CS)C(=O)O . Output DRH: 89.6

Input NC(O)C(=O)O (stereo not drawn) [α-hydroxyglycine, 2-Amino-2-hydroxyacetic acid] . Output DRH: 79.73

Input O=[N+]([O-])[O-].O=[N+]([O-])[O-].[Zn+2] [Zinc Nitrate] . Output DRH: 45.8

Input O=C(O)[C@@H]1CCCN1 . Output DRH: 44.6

Input C[C@H](N)C(=O)O . Output DRH: 83.1

Input N[C@@H](CO)C(=O)O [L-serine, reference compound] . Output DRH: 82.53
